- Tested on: HCC70;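 note: cell viability assay measuring how strongly the compound suppresses proliferation of HCC70 cells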
- test description: cells
- Assay type: functional, cell-based
- condition set: Homo sapiens
- Description: SANGER: Inhibition of human HCC70 cell growth in a cell viability assay.
Kindly supply the reported IC50 values for the records listed here.
Numbers only, in µM.

- compound: "COc1ccc(-c2cc3nccn3c(Nc3ncccc3C(N)=O)n2)cc1OC"
  observable: "IC50"
  result units: "µM"
  test result: 1.93

Batch: IC50 for all items listed.
1. NC(=O)Nc1cc(-c2cccc(F)c2)sc1C(=O)N[C@H]1CCCNC1 [AZD-7762]
2. C/C(=C\c1csc(C)n1)[C@@H]1C[C@@H]2O[C@]2(C)CCC[C@H](C)[C@H](O)[C@@H](C)C(=O)C(C)(C)[C@@H](O)CC(=O)O1 [PATUPILONE]
3. NC1(c2ccc(-c3nc4ccn5c(=O)[nH]nc5c4cc3-c3ccccc3)cc2)CCC1 [MK-2206]

RESULT:
1. 0.307
2. 0.00479
3. 0.598

====

- Tested on: CGTH-W-1;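 note: growth inhibition of human CGTH-W-1 cells measured by cell viability assay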
- test description: cells
- Assay type: functional, cell-based, Homo sapiens
- condition set: Homo sapiens, CGTH-W-1
- Description: SANGER: Inhibition of human CGTH-W-1 cell growth in a cell viability assay.
Kindly supply the reported IC50 values for the records listed here.

Use these answered entries as a reference point.
- compound: "CC1(C)CCC(c2ccc(Cl)cc2)=C(CN2CCN(c3ccc(C(=O)NS(=O)(=O)c4ccc(N[C@H](CCN5CCOCC5)CSc5ccccc5)c(S(=O)(=O)C(F)(F)F)c4)cc3)CC2)C1"
  test result: "> 2 µM"
- compound: "NC1(c2ccc(-c3nc4ccn5c(=O)[nH]nc5c4cc3-c3ccccc3)cc2)CCC1"
  test result: "> 4 µM"

Next, consider the following compound.
QUERY: Which value of IC50 has been reported for C=CC(=O)N1CCCC(Nc2nc(Nc3ccc(N(C)C(=O)CC)cc3)nc3[nH]cnc23)C1 (stereo not drawn) in the records?
RESULT: > 10.2 µM

====

Kindly supply the reported IC50 values for the records listed here.
- Tested on: SK-N-FI
- test description: cells
- Type: functional, cell-based, Homo sapiens
- condition set: Homo sapiens, SK-N-FI
- Description: SANGER: Inhibition of human SK-N-FI cell growth in a cell viability assay.

- entry smiles: "C[C@@H](Oc1cc(-c2cnn(C3CCNCC3)c2)cnc1N)c1c(Cl)ccc(F)c1Cl"
  target or system: "SK-N-FI"
  test result: "> 2 µM"
- entry smiles: "CC(C)C[C@H](NC(=O)[C@H](Cc1ccccc1)NC(=O)c1cnccn1)B(O)O"
  target or system: "SK-N-FI"
  test result: "> 0.02 µM"
- entry smiles: "Cc1cc(N2CCOCC2)cc2[nH]c(-c3c(NC[C@@H](O)c4cccc(Cl)c4)cc[nH]c3=O)nc12"
  target or system: "SK-N-FI"
  test result: "> 5.12 µM"
- entry smiles: "NC1(c2ccc(-c3nc4ccn5c(=O)[nH]nc5c4cc3-c3ccccc3)cc2)CCC1"
  target or system: "SK-N-FI"
  test result: "> 4 µM"

Next, consider the following molecule.
QUERY: Request: IC50, test system SK-N-FI, entry CS(=O)(=O)N1CCN(Cc2cc3nc(-c4cccc5[nH]ncc45)nc(N4CCOCC4)c3s2)CC1;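 note: cell viability assay measuring growth inhibition of human SK-N-FI cells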
RESULT: > 4 µM

====

- Test system: COLO-800;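 note: growth inhibition of COLO-800 cells, read out with a cell viability assay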
- test description: cells
- Format: functional, cell-based, Homo sapiens
- condition set: Homo sapiens, COLO-800
- Description: SANGER: Inhibition of human COLO-800 cell growth in a cell viability assay.
Kindly supply the reported IC50 values for the records listed here.

- compound: "CN(C)CCOc1ccc(-c2nc(-c3ccncc3)c(-c3ccc4c(c3)CC/C4=N\\O)[nH]2)cc1 [SB590885]"
  IC50: "> 5000 nM"
- compound: "C/C(=C\\c1csc(C)n1)[C@@H]1C[C@@H]2O[C@]2(C)CCC[C@H](C)[C@H](O)[C@@H](C)C(=O)C(C)(C)[C@@H](O)CC(=O)O1 [PATUPILONE]"
  IC50: "> 32 nM"
- compound: "CCCCCCCCCCCC1=C(O)C(=O)C=C(O)C1=O [EMBELIN]"
  IC50: "> 32000 nM"

Batch: IC50 for all items listed.
1. COc1ccc(-c2cc3nccn3c(Nc3ncccc3C(N)=O)n2)cc1OC
2. COc1cc(N2CCC(N3CCN(C)CC3)CC2)ccc1Nc1ncc(Cl)c(Nc2ccccc2S(=O)(=O)C(C)C)n1 [TAE-684]
3. C=CC(=O)N1CCCC(Nc2nc(Nc3ccc(N(C)C(=O)CC)cc3)nc3[nH]cnc23)C1 (stereo not drawn)
4. Cc1cc(N2CCOCC2)cc2[nH]c(-c3c(NC[C@@H](O)c4cccc(Cl)c4)cc[nH]c3=O)nc12
5. CN(NC(=O)CC(=O)NN(C)C(=S)c1ccccc1)C(=S)c1ccccc1 [ELESCLOMOL]

RESULT:
1. > 8000 nM
2. 767 nM
3. > 10200 nM
4. > 5120 nM
5. 29.9 nM

====

- Test system: L-363
- test description: cells
- Format: functional, cell-based, Homo sapiens
- condition set: l-363
- Description: SANGER: Inhibition of human L-363 cell growth in a cell viability assay.
Where a SMILES comes first, the peptide text is derived from it. The star is where a group is joined. Cbz = O=C(OCc1ccccc1)*
observable: IC50

QUERY: Which value of IC50 has been reported for CC(C)C[C@@H](C=O)NC(=O)[C@H](CC(C)C)NC(=O)[C@H](CC(C)C)NC(=O)OCc1ccccc1 [MG-132] (Cbz-Leu-Leu-Leu-aldehyde) in the records?
RESULT: > 1000 nM

====

- Tested on: NCI-H2141
- test description: cells
- Format: functional, cell-based, Homo sapiens
- condition set: nci-h2141
- Description: SANGER: Inhibition of human NCI-H2141 cell growth in a cell viability assay.
pIC50: −log10 of the molar value. Where a SMILES comes first, the peptide text is derived from it. The star is where a group is joined. Cbz = O=C(OCc1ccccc1)*
observable: pIC50

QUERY: Which value of pIC50 has been reported for CC(C)C[C@@H](C=O)NC(=O)[C@H](CC(C)C)NC(=O)[C@H](CC(C)C)NC(=O)OCc1ccccc1 [MG-132] (Cbz-Leu-Leu-Leu-aldehyde) in the records?
RESULT: < 6.00

====

Kindly supply the reported pIC50 values for the records listed here.
- System: BT-20;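 note: cell viability assay measuring suppression of growth in human BT-20 cells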
- test description: cells
- Type: functional, cell-based
- condition set: Homo sapiens
- Description: SANGER: Inhibition of human BT-20 cell growth in a cell viability assay.
pIC50: −log10 of the molar value.

Batch: pIC50 for all items listed.
1. CC1(C)CCC(c2ccc(Cl)cc2)=C(CN2CCN(c3ccc(C(=O)NS(=O)(=O)c4ccc(N[C@H](CCN5CCOCC5)CSc5ccccc5)c(S(=O)(=O)C(F)(F)F)c4)cc3)CC2)C1
2. NC(=O)c1ccc(N(C(N)=O)c2c(F)cccc2F)nc1-c1ccc(F)cc1F
3. NC1(c2ccc(-c3nc4ccn5c(=O)[nH]nc5c4cc3-c3ccccc3)cc2)CCC1
4. CC1=C(/C=C/C(C)=C/C=C/C(C)=C/C(=O)O)C(C)(C)CCC1
5. CS(=O)(=O)N1CCN(Cc2cc3nc(-c4cccc5[nH]ncc45)nc(N4CCOCC4)c3s2)CC1

RESULT:
< 5.70
< 5.70
< 5.40
< 5.00
5.77

Batch: pIC50 for all items listed.
1. CN(NC(=O)CC(=O)NN(C)C(=S)c1ccccc1)C(=S)c1ccccc1
2. CCCCCCCCCCCC1=C(O)C(=O)C=C(O)C1=O
3. Cc1ccc(-n2nc(C(C)(C)C)cc2NC(=O)Nc2ccc(OCCN3CCOCC3)c3ccccc23)cc1

RESULT:
1. 7.45
2. 4.84
3. < 5.00

====

- Tested on: KMS-12-PE
- test description: cells
- Type: functional, cell-based, Homo sapiens
- condition set: Homo sapiens, KMS-12-PE
- Description: SANGER: Inhibition of human KMS-12-PE cell growth in a cell viability assay.
pIC50: −log10 of the molar value.
observable: pIC50

- compound: "C[C@@H](Oc1cc(-c2cnn(C3CCNCC3)c2)cnc1N)c1c(Cl)ccc(F)c1Cl [CRIZOTINIB]"
  target or system: "KMS-12-PE"
  test result: "< 5.70"
- compound: "COc1ccc(N(C(=O)Oc2c(C)cccc2C)c2ccnc(Nc3ccc(N4CCN(C)CC4)cc3)n2)c(OC)c1"
  target or system: "KMS-12-PE"
  test result: "< 5.29"
- compound: "NC(=O)c1cccc(-c2cc(Nc3ccc(OC(F)(F)F)cc3)ncn2)c1"
  target or system: "KMS-12-PE"
  test result: "< 5.89"

Next, consider the following compound.
QUERY: Request: pIC50, test system KMS-12-PE, entry OC[C@H](Cc1ccccc1)Nc1nc(Oc2ccc3c(c2)CCC3)nc2c1ncn2Cc1ccc(-c2ccccc2)cc1;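 note: growth inhibition of human KMS-12-PE cells, measured with a cell viability assay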
RESULT: < 4.99

====

- Tested on: CTB-1
- test description: cells
- Format: functional, cell-based, Homo sapiens
- condition set: Homo sapiens, CTB-1
- Description: SANGER: Inhibition of human CTB-1 cell growth in a cell viability assay.
observable: IC50

Use these answered entries as a reference point.
- compound: "O=C(NCCCNc1nc(Nc2cccc(NC(=O)N3CCCC3)c2)ncc1I)c1cccs1 [BX-795]"
  IC50: "2400 nM"
- compound: "O=C1NC(=O)c2c1c(-c1ccccc1Cl)cc1[nH]c3ccc(O)cc3c21"
  IC50: "242 nM"
- compound: "Cc1ccc(C(=O)Nc2ccc(CN3CCN(C)CC3)c(C(F)(F)F)c2)cc1C#Cc1cnc2cccnn12 [PONATINIB]"
  IC50: "173 nM"
- compound: "C[C@@H](Oc1cc(-c2cnn(C3CCNCC3)c2)cnc1N)c1c(Cl)ccc(F)c1Cl [CRIZOTINIB]"
  IC50: "> 2000 nM"
- compound: "Cc1ccc(-n2nc(C(C)(C)C)cc2NC(=O)Nc2ccc(OCCN3CCOCC3)c3ccccc23)cc1 [DORAMAPIMOD]"
  IC50: "> 10000 nM"
- compound: "CC1(C)CCC(c2ccc(Cl)cc2)=C(CN2CCN(c3ccc(C(=O)NS(=O)(=O)c4ccc(N[C@H](CCN5CCOCC5)CSc5ccccc5)c(S(=O)(=O)C(F)(F)F)c4)cc3)CC2)C1 [NAVITOCLAX]"
  IC50: "> 2000 nM"

Batch: IC50 for all items listed.
1. Cc1ccc(NC(=O)c2ccc(CN3CCN(C)CC3)cc2)cc1Nc1nccc(-c2cccnc2)n1 [IMATINIB]
2. CN(NC(=O)CC(=O)NN(C)C(=S)c1ccccc1)C(=S)c1ccccc1 [ELESCLOMOL]

RESULT:
> 2000 nM
8.64 nM
